Method description: Oral bioavailability in dog
Format: ADME, organism-based, Canis lupus familiaris
Condition details: in vivo
Some compounds, each annotated with its measured bioavailability.
Just the number please, in %, no unit attached.

[[record]]
smiles_string = "CS(=O)(=O)c1ccc(C(=O)N2CCN(c3ccc(OC4CCN(C5CCC5)CC4)cc3)CC2)cc1"
observed_measurement = 90


Below: the item to evaluate.
Exam item: # lookup: bioavailability of C[C@@H]1CCCN1CCc1cc2cc(-c3cn[nH]c3)ccc2o1
Marked response: 30

###

Method description: Half life in dog
Assay type: ADME, organism-based, Canis lupus familiaris
Condition details: in vivo
Measured half-life of individual entries
Give the quantity in h, number only.

[[record]]
smiles_string = "CS(=O)(=O)c1ccc(C(=O)N2CCN(c3ccc(OC4CCN(C5CCC5)CC4)cc3)CC2)cc1"
measure_unit = "h"
observed_measurement = 5


Okay, now this compound:
Exam item: Form field: reported half-life of C[C@@H]1CCCN1CCc1cc2cc(-c3cn[nH]c3)ccc2o1
Marked response: 1.7

###

Measured bioavailability, listed per entry.
Method description: Oral bioavailability in rat at 1 mg/kg
Assay type: ADME, organism-based
Condition details: in vivo
Write the number in % without appending the unit.

[[record]]
smiles_string = "C[C@@H]1CCCN1CCc1ccc2cc(-n3ncccc3=O)ccc2c1"
observed_measurement = 84


Then this molecule:
Exam item: Given the molecule C[C@@H]1CCCN1CCc1cc2cc(-c3ccc(C#N)cc3)ccc2o1 , what is its reported bioavailability?
Marked response: 52

###

Method description: Volume of distribution in rat
Format: ADME, organism-based
Condition details: in vivo
Observation type: Vd

Exam item: Bench note: what Vd did c1cc(OCCCN2CCCCC2)ccc1CN1CCCCC1 [JNJ-5207852] show?
Marked response: > 100 L/kg

###

Method description: Half life in rat
Format: ADME, organism-based
Condition details: in vivo
Rule: half-life below 5 h gives Criterion met. Equal to or above 5 h gives Criterion not met.

Use these answered entries as a reference point.
[[record]]
compound = "Cc1cc2ncc(-c3ccc4cc(CCN5CCC[C@H]5C)ccc4n3)c(C)n2n1"
classification = "Criterion not met"

[[record]]
compound = "c1cc(OCCCN2CCCCC2)ccc1CN1CCCCC1 [JNJ-5207852]"
classification = "Criterion not met"

[[record]]
compound = "C[C@@H]1CCCN1CCc1cc2cc(-c3cn[nH]c3)ccc2o1"
classification = "Criterion met"


Exam item: Is it true that half-life reported for C[C@@H]1CCCN1CCc1ccc2cc(-c3ccc(C#N)cc3)ccc2c1 is less than 5 h?
Marked response: Criterion not met

Exam item: State whether 5 h exceeds half-life recorded for CS(=O)(=O)c1ccc(C(=O)N2CCN(c3ccc(OC4CCN(C5CCC5)CC4)cc3)CC2)cc1 .
Marked response: Criterion met

###

Each entry below carries its recorded log10(Ki).
Assay target: Histamine H3 receptor (Homo sapiens, UniProt Q9Y5N1)
Sequence (Q9Y5N1 whole entry): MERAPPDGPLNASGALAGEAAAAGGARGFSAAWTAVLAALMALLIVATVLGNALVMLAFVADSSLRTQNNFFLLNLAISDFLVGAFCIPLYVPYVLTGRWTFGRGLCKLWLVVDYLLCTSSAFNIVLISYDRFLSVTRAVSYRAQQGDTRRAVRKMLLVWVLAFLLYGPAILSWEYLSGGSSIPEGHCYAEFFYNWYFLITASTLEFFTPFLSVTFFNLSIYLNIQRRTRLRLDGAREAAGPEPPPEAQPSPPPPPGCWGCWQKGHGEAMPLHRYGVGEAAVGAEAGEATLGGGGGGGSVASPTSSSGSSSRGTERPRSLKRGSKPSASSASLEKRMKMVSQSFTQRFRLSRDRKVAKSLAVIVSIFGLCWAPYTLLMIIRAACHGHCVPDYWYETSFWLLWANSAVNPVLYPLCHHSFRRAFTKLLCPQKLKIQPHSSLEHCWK
Method description: Binding affinity to human histamine H3 receptor
Condition details: read-out: pKi (converted)
Response schema: value (number) is log10 of Ki in units of nM.

Reference set (4 entries):
[[record]]
compound = "C[C@@H](N)C(=O)N1CCN(CCCOc2ccc(C(=O)C3CC3)cc2)CC1"
assay_target = "Histamine H3 receptor (Homo sapiens, UniProt Q9Y5N1)"
observation_type = "log10(Ki)"
observed_measurement = 2.90

[[record]]
compound = "CC1(C)CCCN(CCCOc2ccc(C3CCN(C(=O)c4ccc(CCC(=O)O)c5ccccc45)CC3)cc2)C1"
assay_target = "Histamine H3 receptor (Homo sapiens, UniProt Q9Y5N1)"
observation_type = "log10(Ki)"
observed_measurement = 1.70

[[record]]
compound = "N#Cc1ccc(-c2ccc(OCCCN3CCCN(C(=O)[C@@H](Cc4cscn4)NC(=O)c4ccco4)CC3)cc2)cc1"
assay_target = "Histamine H3 receptor (Homo sapiens, UniProt Q9Y5N1)"
observation_type = "log10(Ki)"
observed_measurement = 0.20

[[record]]
compound = "CC(C)N1CCCN(C(=O)C2CCN(c3ccc(C(F)(F)F)nc3)CC2)CC1"
assay_target = "Histamine H3 receptor (Homo sapiens, UniProt Q9Y5N1)"
observation_type = "log10(Ki)"
observed_measurement = -0.50


Exam item: What value of log10(Ki) has been recorded for this entry: CS(=O)(=O)c1ccc(C(=O)N2CCN(c3ccc(OC4CCN(C5CCC5)CC4)cc3)CC2)cc1
Marked response: -0.50

Exam item: Quick check: log10(Ki) of C[C@H]1CC[C@H](C)N1CCCOc1ccc(-c2ccc(C(=O)N3CCOCC3)cc2)cc1 (single isomer, unassigned) ?
Marked response: 0.20

Exam item: Look up log10(Ki) for this compound: C[C@@H]1CCCN1CCc1cc2cc(-c3cn[nH]c3)ccc2o1
Marked response: -0.30
